Target: AKT2/PKBβ (Homo sapiens, UniProt P31751, S474D)
Construct: ΔPH-PKBβ-S474D
Sequence (P31751 119-481 S474D limits assumed): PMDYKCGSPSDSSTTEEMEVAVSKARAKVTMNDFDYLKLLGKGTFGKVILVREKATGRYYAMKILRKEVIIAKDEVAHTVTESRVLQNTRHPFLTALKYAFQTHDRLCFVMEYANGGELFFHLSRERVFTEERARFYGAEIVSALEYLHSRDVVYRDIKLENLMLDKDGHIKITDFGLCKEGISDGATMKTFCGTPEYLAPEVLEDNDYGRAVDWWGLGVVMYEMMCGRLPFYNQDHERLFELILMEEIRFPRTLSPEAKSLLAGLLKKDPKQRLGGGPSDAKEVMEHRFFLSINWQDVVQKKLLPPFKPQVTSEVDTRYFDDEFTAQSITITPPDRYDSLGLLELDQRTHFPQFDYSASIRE
Test: […]-γ-ATP radiometric kinase assay with purified kinase and Crosstide peptide
Reported Endpoint: IC50
Express the reported value numerically, then name its unit.

Value wanted: IC50 (AKT2/PKBβ (Homo sapiens, UniProt P31751, S474D)) of entry Cc1nn(-c2ccc(Cl)cc2)c2c1C(c1ccc(-c3ccccc3)cc1)C(C#N)=C(N)O2 (stereo not shown)
12 µM

###

Target: AKT1/PKBα (Homo sapiens, UniProt P31749, S473D)
Construct: ΔPH-PKBα-S473D
Sequence (P31749 118-480 S473D limits assumed): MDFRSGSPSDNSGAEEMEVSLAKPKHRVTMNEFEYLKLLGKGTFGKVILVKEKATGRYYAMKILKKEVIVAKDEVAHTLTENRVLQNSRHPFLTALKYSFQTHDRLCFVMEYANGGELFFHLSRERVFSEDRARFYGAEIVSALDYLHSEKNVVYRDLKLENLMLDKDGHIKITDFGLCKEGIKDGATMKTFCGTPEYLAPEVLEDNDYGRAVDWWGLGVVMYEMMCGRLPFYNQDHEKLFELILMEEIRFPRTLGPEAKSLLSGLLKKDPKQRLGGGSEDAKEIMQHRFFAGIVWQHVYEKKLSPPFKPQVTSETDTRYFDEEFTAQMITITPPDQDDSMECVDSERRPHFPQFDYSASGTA
Experiment: […]-γ-ATP radiometric kinase assay with purified kinase and Crosstide peptide
Format: biochemical
Reported Endpoint: pIC50
Notebook: values listed as pIC50 are -log10 of the concentration (mol/L).

State the recorded pIC50 for this entry: Cc1nn(-c2ccc(Cl)cc2)c2c1C(c1ccc(-c3ccccc3)cc1)C(C#N)=C(N)O2 (stereo not shown)
4.85
